These data points were gathered from paper PMC5617202.

Listed below: log10 of kcat/Km values for each entry.
Substrate: CCCCC/C=C\C/C=C\C=C\[C@@H](C/C=C\CCCC(=O)O)OO
Assay: purified protein
Type: biochemical, Capnella imbricata
Details: 50 mM Tris pH 8.0, 100 mM NaCl, 1 mM CaCl2, 20 °C, 5–50 μM substrate
Please interpret these as log10 of kcat/Km where kcat/Km is in M⁻¹ s⁻¹.

C. imbricata cHPL (catalase-related hydroperoxide lyase domain) (Capnella imbricata; E60K/M59L) (protein, N-terminal cHPL domain of the HPL-LOX fusion protein, without the LOX domain; cHPL-His4 in pET11a; E. coli BL21(DE3), Ni-NTA; heme protein; monomer 45 kDa plus oligomers 440-670 kDa) MVWKNFGYEIFAEKFGKDELEKRIKDEHTAPPESPLFGSLKLKMKKEKFKILFTLRTTLKGFRRPTHTVATGGLGEITIVSDPKFPEHEFYRAGRKFPARLRHANLKLLDDAGSDARSFSIKFADNDSESPMDIVMNTGEANIFWNTSSFEDFVSSSAGESAAKEYVYKNPYYYYYSIEALRRAPETFAHLYYYSQLTMHFKAKDGKVRYCRYRAIPGDADIKEEEESGRLTEEEQRNVWIRSRHQNEKRPDDYLRKEYVERLGKGPVNYRLQIQIHEASPDDTATIFHAGIMWNKETHPWFDLAKVSIKTPLSPDVLERTSFNIVNQPESLGLLEAKSPEDYNSIGQIRVAVYKWIQHLRKLKVGSLVPTGQN
6.00
C. imbricata cAOS (cAOS-H4 domain) (Capnella imbricata; L150F) (protein, N-terminal cAOS domain of the AOS-LOX fusion protein, without the LOX domain; cAOS-H4 (His4 tag) in pET11a; E. coli BL21(DE3), Ni-NTA; heme protein; monomer) MTWKNFGFDIFAERFGKDKLEKRIKDERTPPPDSPVFGGLTLRMKIEKFKTLFTLGTTLKGFRRATHTVGTGGIGEVTVVDDPKFPEHEFFKAGRKLPVRLRHANLKYPDDAGADARSFSIKFSDNDSESPLDIVMNTGEANIFWHTSSFEDFVPVKEGDSAKEYVYKNPYYYYNLVEALRRAPNTFAHLYYYSQVTMHFKAKDGKERYCRYRAIPGDVDIKEEEESGRLTEEEQRNIWTFSRYETEKRPDDYLRKEYVERLKKGPVNYRLQIQIHDVSPNDTATIFHAGILWDKETHPWFDLAKVSITTPMSPDVLERTNFNIVNQPKSLGLLDAKSPEDYNSIGQIRVSVYNWVQHLRKLKLGSLIPAGQN
7.48
C. imbricata cHPL (catalase-related hydroperoxide lyase domain) (Capnella imbricata; R56G) (protein, N-terminal cHPL domain of the HPL-LOX fusion protein, without the LOX domain; cHPL-His4 in pET11a; E. coli BL21(DE3), Ni-NTA; heme protein; monomer 45 kDa plus oligomers 440-670 kDa) MVWKNFGYEIFAEKFGKDELEKRIKDEHTAPPESPLFGSLKLKMKKEKFKILFTLGTTMEGFRRPTHTVATGGLGEITIVSDPKFPEHEFYRAGRKFPARLRHANLKLLDDAGSDARSFSIKFADNDSESPMDIVMNTGEANIFWNTSSFEDFVSSSAGESAAKEYVYKNPYYYYYSIEALRRAPETFAHLYYYSQLTMHFKAKDGKVRYCRYRAIPGDADIKEEEESGRLTEEEQRNVWIRSRHQNEKRPDDYLRKEYVERLGKGPVNYRLQIQIHEASPDDTATIFHAGIMWNKETHPWFDLAKVSIKTPLSPDVLERTSFNIVNQPESLGLLEAKSPEDYNSIGQIRVAVYKWIQHLRKLKVGSLVPTGQN
7.20

Form field: reported log10 of kcat/Km of C. imbricata cHPL (catalase-related hydroperoxide lyase domain) (Capnella imbricata; P65A) (protein, N-terminal cHPL domain of the HPL-LOX fusion protein, without the LOX domain; cHPL-His4 in pET11a; E. coli BL21(DE3), Ni-NTA; heme protein; monomer 45 kDa plus oligomers 440-670 kDa) MVWKNFGYEIFAEKFGKDELEKRIKDEHTAPPESPLFGSLKLKMKKEKFKILFTLRTTMEGFRRATHTVATGGLGEITIVSDPKFPEHEFYRAGRKFPARLRHANLKLLDDAGSDARSFSIKFADNDSESPMDIVMNTGEANIFWNTSSFEDFVSSSAGESAAKEYVYKNPYYYYYSIEALRRAPETFAHLYYYSQLTMHFKAKDGKVRYCRYRAIPGDADIKEEEESGRLTEEEQRNVWIRSRHQNEKRPDDYLRKEYVERLGKGPVNYRLQIQIHEASPDDTATIFHAGIMWNKETHPWFDLAKVSIKTPLSPDVLERTSFNIVNQPESLGLLEAKSPEDYNSIGQIRVAVYKWIQHLRKLKVGSLVPTGQN
6.41

Would you kindly repeat that for C. imbricata cHPL (catalase-related hydroperoxide lyase domain) (Capnella imbricata; I357V) (protein, N-terminal cHPL domain of the HPL-LOX fusion protein, without the LOX domain; cHPL-His4 in pET11a; E. coli BL21(DE3), Ni-NTA; heme protein; monomer 45 kDa plus oligomers 440-670 kDa) MVWKNFGYEIFAEKFGKDELEKRIKDEHTAPPESPLFGSLKLKMKKEKFKILFTLRTTMEGFRRPTHTVATGGLGEITIVSDPKFPEHEFYRAGRKFPARLRHANLKLLDDAGSDARSFSIKFADNDSESPMDIVMNTGEANIFWNTSSFEDFVSSSAGESAAKEYVYKNPYYYYYSIEALRRAPETFAHLYYYSQLTMHFKAKDGKVRYCRYRAIPGDADIKEEEESGRLTEEEQRNVWIRSRHQNEKRPDDYLRKEYVERLGKGPVNYRLQIQIHEASPDDTATIFHAGIMWNKETHPWFDLAKVSIKTPLSPDVLERTSFNIVNQPESLGLLEAKSPEDYNSIGQIRVAVYKWVQHLRKLKVGSLVPTGQN ?
7.11
